# Test system: G. duodenalis BRIS/91/HEPU/1279
# assay_summary: Primary Giardia screen at 10 µM (live-cell imaging, automated counting)
# Assay type: cell-based, Giardia duodenalis
# assay_setup: 48 h, first singlicate assay
Parameter: % Inhibition n=1 48h. Scope: all listed entries.
Kindly report the value followed by its unit.

{"columns": ["molecule", "% Inhibition n=1 48h"],
 "data": [
  ["CCOc1ccc(S(=O)(=O)N(C)Cc2c(C)nn(C)c2C)cc1 [SN00802962]", "2.3%"]
]}

Task: So what's the measured % Inhibition n=1 48h for this one? Cc1nc(N(C)C)ncc1C(=O)O [SN00784957]
Output: 3.0%

Task: Same read-out for O=C(CCC(=O)N1CCCN(c2nc3cccnc3s2)CC1)NCCc1c[nH]c2ccccc12 [SN00795593] ?
Output: 0.0%

###

Listed next: entries and their corresponding % Inhibition n=1 48h.
# Test system: G. duodenalis BRIS/91/HEPU/1279
# assay_summary: Primary Giardia screen at 10 µM (live-cell imaging, automated counting)
# Format: cell-based, Giardia duodenalis
# assay_setup: 48 h, first singlicate assay
Response body: numeric value in %, unit text excluded.

{"columns": ["compound", "% Inhibition n=1 48h / %"],
 "data": [
  ["CCCc1cc(=O)n2nc(N(C)CC(=O)NCCCN3CCCC3=O)sc2n1", 4.1]
]}

Task: Param item = CCOc1ccc(CNC(=O)c2cccc(NC(=O)c3nnc(C4CC4)s3)c2)cc1 ; retrieve measured % Inhibition n=1 48h.
Output: 0.0

Task: # iterate: O=C(NC1CCCCCC1)c1cc2cn(C3CC3)cc2s1
Output: 43.4

###

In this section, each of the compounds is paired with its reported % Inhibition n=1 48h.
# Tested on: G. duodenalis BRIS/91/HEPU/1279
# assay_summary: Primary Giardia screen at 10 µM (live-cell imaging, automated counting)
# Format: cell-based, Giardia duodenalis
# assay_setup: 48 h, first singlicate assay

Observe how each entry below is paired with its result.
{"columns": ["compound", "assay_target", "% Inhibition n=1 48h"],
 "data": [
  ["COCCNC(=O)C1(C)Cn2c(cc3ccsc32)C(=O)N1c1ccc(OC)c(OC)c1 (centres unmarked)", "G. duodenalis BRIS/91/HEPU/1279", "0.0%"],
  ["CN1CCN(Cc2nc3ccccc3c(=O)n2Cc2nc(-c3cccc([N+](=O)[O-])c3)cs2)CC1", "G. duodenalis BRIS/91/HEPU/1279", "11.4%"],
  ["COc1cc(-c2c(Nc3ccccc3)oc3c2c(=O)n(C)c(=O)n3C)cc(OC)c1OC", "G. duodenalis BRIS/91/HEPU/1279", "0.0%"],
  ["Cc1cc(-c2csc(S(=O)(=O)Nc3ccc(Cl)c(C(F)(F)F)c3)c2)on1", "G. duodenalis BRIS/91/HEPU/1279", "0.0%"],
  ["CC(=O)c1cccc(NS(=O)(=O)c2c(C)n[nH]c2C)c1", "G. duodenalis BRIS/91/HEPU/1279", "5.0%"]
]}

Task: I have this compound here, Cc1ccc(NC(=O)CN2CC(c3ccccc3)CC2=O)c(C)c1 (centres unmarked) , and I need its recorded % Inhibition n=1 48h.
Output: 6.2%

Task: Also Cc1cc(C)c2c(=O)n(CC(=O)Nc3ccc(Br)cc3)c(=O)n(C)c2n1 ?
Output: 0.0%

Task: Cool, now CCc1ccc(-n2ccc(=O)c(-c3nc(-c4cccc(Cl)c4)no3)n2)cc1
Output: 4.9%

Task: Next compound: Cc1ccc(-c2[nH]c(-c3ccccc3)nc2S(=O)(=O)CC(=O)Nc2ccccc2)cc1
Output: 11.7%

Task: Quick one: COc1cccc(C(=O)NC2(C(F)(F)F)C(=O)N(Cc3ccccc3)C(C)=C2C(C)=O)c1 (centres unmarked)
Output: 2.9%

Task: Same for O=C(C1CCCN(c2cnccn2)C1)N1CCN(Cc2cccs2)CC1 (centres unmarked)
Output: 17.2%

Task: Try this compound too: Cn1nc(-c2nnc(-c3ccccc3Cl)o2)c2c1CCN(C(=O)c1ccc(F)c(F)c1)C2
Output: 25.5%

Task: And then Cc1cccc(N(C)c2ccc3cc(S(=O)(=O)N4CCCC4)ccc3n2)c1 , what is it?
Output: 7.2%

Task: Ok, now CCn1c(C)c(C2=CCN(S(=O)(=O)c3ccc(F)cc3)CC2)c2ccccc21
Output: 17.2%

Task: Now the compound CCOc1ccc(-c2nc(CSCC(=O)N3CCN(c4ccc(Cl)cc4)CC3)c(C)o2)cc1
Output: 0.0%

Task: Moving on to the next compound: CCc1ccc(NC(=O)[C@@H]2c3cc(OC)c(OC)cc3C(=O)N3CCCC[C@@H]23)cc1 (relative stereo)
Output: 28.1%

Task: Also need COc1ccc(-c2cc3nc4c(c(=O)n3[nH]2)CNCC4)cc1 , thanks.
Output: 0.0%
